Tested on: Escherichia coli TOP10
assay.text: shrunken log2 fold change of peptide-encoding DNA abundance (4.5 h post-induction vs induction); higher = less antimicrobial activity (less host growth inhibition)
measurement.context: time post-induction: 4.5 h; library: site-saturation at positions 5, 18, 19, 20
measure.name: shrunken log2 fold change
Could you respond with only the numeric value?

{"columns": ["item.sequence", "target.system", "shrunken log2 fold change"],
 "data": [
  ["RRIRPRPPRLPRPRPRPRAHPRP", "Escherichia coli TOP10", 0.345],
  ["RRIRDRPPRLPRPRPRPYNAPRP", "Escherichia coli TOP10", -0.0556],
  ["RRIRGRPPRLPRPRPRPRRRPRP", "Escherichia coli TOP10", 1.02]
]}

Next:
Ask: What reported shrunken log2 fold change corresponds to RRIRARPPRLPRPRPRPTSHPRP on Escherichia coli TOP10?
Result: -0.016

----------
Tested on: Escherichia coli TOP10
assay.text: shrunken log2 fold change of peptide-encoding DNA abundance (4.5 h post-induction vs induction); higher = less antimicrobial activity (less host growth inhibition)
measurement.context: time post-induction: 4.5 h; library: site-saturation at positions 5, 18, 19, 20
measure.name: shrunken log2 fold change
Write no unit; give the number alone.

Please review the following examples before continuing.
{"columns": ["item.sequence", "shrunken log2 fold change"],
 "data": [
  ["RRIRGRPPRLPRPRPRPSATPRP", 3.09],
  ["RRIRVRPPRLPRPRPRPMHCPRP", -0.00923],
  ["RRIRPRPPRLPRPRPRPCKCPRP", -0.275],
  ["RRIRHRPPRLPRPRPRPNGGPRP", -0.147],
  ["RRIRKRPPRLPRPRPRPTRNPRP", 0.547],
  ["RRIRERPPRLPRPRPRPWKHPRP", -0.176],
  ["RRIRRRPPRLPRPRPRPQKMPRP", -0.02],
  ["RRIRTRPPRLPRPRPRPNKPPRP", -0.0031]
]}

Ask: Field request: shrunken log2 fold change | item: RRIRTRPPRLPRPRPRPAQGPRP
Result: 0.228

Ask: // shrunken log2 fold change lookup, key: RRIRERPPRLPRPRPRPMVTPRP
Result: -0.0939

Ask: GET /values?readout=shrunken log2 fold change&item= RRIRARPPRLPRPRPRPLKQPRP
Result: 0.469

Ask: Given RRIRRRPPRLPRPRPRPWRMPRP , state its recorded shrunken log2 fold change.
Result: 0.00176

Ask: Reported shrunken log2 fold change for RRIRTRPPRLPRPRPRPCEQPRP : what is it?
Result: 0.0027

Ask: Recorded shrunken log2 fold change of RRIRPRPPRLPRPRPRPNALPRP , please.
Result: 0.0933

----------
Property: shrunken log2 fold change; scope: individual sequences
System: Escherichia coli TOP10;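 further: peptides expressed intracellularly from a pBAD plasmid library in pooled LB shake-flask culture, induced with 0.3% L-arabinose, DNA abundance read by NGS, three biological replicates, DESeq2 with apeglm shrinkage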
assay.text: shrunken log2 fold change of peptide-encoding DNA abundance (4.5 h post-induction vs induction); higher = less antimicrobial activity (less host growth inhibition)
measurement.context: time post-induction: 4.5 h; library: site-saturation at positions 5, 18, 19, 20
Please give only the number in your answer, with no unit.

{"columns": ["item.sequence", "shrunken log2 fold change"],
 "data": [
  ["RRIRWRPPRLPRPRPRPSTWPRP", -0.148],
  ["RRIRPRPPRLPRPRPRPMIKPRP", -0.696]
]}

# context switch: different sequence, same shrunken log2 fold change
Ask: If you can, please state the reported shrunken log2 fold change value of RRIRGRPPRLPRPRPRPKGFPRP .
Result: -0.0463

Measured values drawn from the supplement of paper PMC9112550 for this set.
